Value source: PubChem BioAssay (NCI)

- System: SW-620 colon
- assay.details: NCI-60 one-dose screen, 48 h (100 = growth as untreated, 0 = no growth, -100 = all killed)
- condition.set: 10 µM unless noted
This is part of a sample that, as a whole, favours compounds with a hit. Of some 83,000 tested, about 20% had one in any assay. Active and inactive are the calls of the source. The calls were made as follows: active = growth percent below 10; inactive = the rest.
growth values, listed per item

Consider the following illustrative entries.
compound=CCOC(=O)CSc1nc2sc3c(c2c(=O)n1-c1ccccc1)CCCCC3 measured_result="98.1% (inactive)"
compound=COc1ccc(NC(=O)c2ccc(NC3=C(c4ccc(Cl)cc4)C(=O)NC3=O)cc2)cc1 measured_result="103% (inactive)"
compound=COc1cccc2cc(N(C)c3ncnc4ccccc34)ccc12 measured_result="20.5% (inactive)"
compound=Brc1ccc(-c2nn(-c3ccccc3)cc2-c2nn[nH]n2)s1 measured_result="97.1% (inactive)"
compound=CC(C)n1cc(C2=C(c3cccc4ccccc34)C(=O)NC2=O)c2cc(Br)ccc21 measured_result="46.7% (inactive)"
compound="Cc1[nH]c(C(=O)Nc2ccccc2OC2CCNC2)c(Cl)c1Cl (centres undefined)" measured_result="79.8% (inactive)"
compound=O=C(/C=C/c1ccc([N+](=O)[O-])cc1)c1cccc(Nc2nc(Nc3ccccc3)nc(Nc3ccccc3)n2)c1 measured_result="67.6% (inactive)"
compound="CC1OC(C(=O)N2CCN(CCO)CC2)CC1COC1CCCCC1 (centres undefined)" measured_result="101% [50 µM] (inactive)"

growth measured on CCOC(=O)c1cc(C(=O)c2cc(OC)cc(OC)c2)n2ncccc12 = 18.4% (inactive)

Field growth (entry CN1CCN(Cc2ccc(NC(=O)c3cncc(C#Cc4c(N)ncc5c(F)cccc45)c3)cc2C(F)(F)F)CC1 ) reads -51.9% (active)

Reported growth of Cc1ccc(Nc2cc(N)nc(N)n2)cc1 : 102% (inactive)

Looking up CCC(C)C(N)C(=O)NC(CC(C)C)C(=O)N1CCCC1C(=O)NC(Cc1c[nH]c2ccccc12)C(=O)NC(CCCCN)C(=O)NC(Cc1c[nH]c2ccccc12)C(=O)N1CCCC1C(=O)NC(Cc1c[nH]c2ccccc12)C(=O)NC(Cc1c[nH]c2ccccc12)C(=O)N1CCCC1C(=O)NC(Cc1c[nH]c2ccccc12)C(=O)NC(CCCNC(=N)N)C(=O)NC(CCCNC(=N)N)C(N)=O (centres undefined) , I found its growth recorded as 108% (inactive)

What the record says about CC1=C(C(=O)OCc2ccccc2)C(c2ccc3c(c2)OCO3)n2c(nc3ccccc32)N1 (centres undefined) : growth is 17.6% (inactive)

Measured growth, CCCN1C(=O)N(CCC)C2C1NC(=S)N2/N=C/C=C/c1ccccc1OC (centres undefined) : 22% (inactive)
